Target: T1, human CD70 expressed on the cell surface of tumor cell lines (human, UniProt P32970 1-193)
T1 construct: whole, on cells
T1 sequence (looked up): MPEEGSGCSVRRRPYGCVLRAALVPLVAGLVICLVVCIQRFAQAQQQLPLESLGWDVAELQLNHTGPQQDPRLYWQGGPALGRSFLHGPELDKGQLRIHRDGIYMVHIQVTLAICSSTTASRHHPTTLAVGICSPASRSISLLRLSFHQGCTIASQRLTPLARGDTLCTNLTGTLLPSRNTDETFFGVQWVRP
Test: flow cytometry on U251 cells, PE anti-human Fc, MFI; same fit as Table 6, which prints it in nM
EC50 values, listed per item
// note: answer is a bare numeric in µg/mL

In the examples that follow, each entry is paired with its recorded EC50.
>>> reported_value("69A7 (parent antibody), full IgG (antibody, V domains shown, also called parent antibody 69A7) VH: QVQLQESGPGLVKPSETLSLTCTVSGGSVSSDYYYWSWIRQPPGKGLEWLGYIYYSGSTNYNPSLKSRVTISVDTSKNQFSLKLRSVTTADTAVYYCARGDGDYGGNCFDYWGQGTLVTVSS VL: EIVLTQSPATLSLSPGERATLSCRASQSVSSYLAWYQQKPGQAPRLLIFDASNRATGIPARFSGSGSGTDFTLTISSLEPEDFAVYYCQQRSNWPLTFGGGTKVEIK")
1.22
>>> reported_value("2D2, full IgG (antibody, V domains shown) VH: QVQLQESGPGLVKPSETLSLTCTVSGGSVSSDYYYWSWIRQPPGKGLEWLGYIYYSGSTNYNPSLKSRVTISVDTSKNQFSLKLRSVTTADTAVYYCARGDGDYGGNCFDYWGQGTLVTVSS VL: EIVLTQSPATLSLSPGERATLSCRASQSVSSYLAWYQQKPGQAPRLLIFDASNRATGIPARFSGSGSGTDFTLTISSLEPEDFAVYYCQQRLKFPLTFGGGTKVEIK")
1.11
>>> reported_value("1H8, full IgG (antibody, V domains shown) VH: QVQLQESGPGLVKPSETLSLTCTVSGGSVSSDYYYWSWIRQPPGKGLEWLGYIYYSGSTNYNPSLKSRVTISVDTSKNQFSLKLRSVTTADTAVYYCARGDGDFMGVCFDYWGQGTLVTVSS VL: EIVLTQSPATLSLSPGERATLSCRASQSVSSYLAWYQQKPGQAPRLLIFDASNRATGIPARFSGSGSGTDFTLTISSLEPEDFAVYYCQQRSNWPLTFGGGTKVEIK")
1.2

# ---- query binder ----
Exercise: Value lookup for EC50; key = 2A4P0L1, full IgG (antibody, V domains shown) VH: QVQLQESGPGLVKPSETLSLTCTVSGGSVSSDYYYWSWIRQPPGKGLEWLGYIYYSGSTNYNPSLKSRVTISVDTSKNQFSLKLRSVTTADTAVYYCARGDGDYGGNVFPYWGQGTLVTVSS VL: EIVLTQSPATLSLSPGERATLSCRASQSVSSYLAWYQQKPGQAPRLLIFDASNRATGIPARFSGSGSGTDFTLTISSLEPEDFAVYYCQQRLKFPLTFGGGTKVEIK
Key: 0.708
